Ref: patent US20130195869A1

- target: T1, human native CCR7 on peripheral blood mononuclear cells of a healthy person (human, UniProt P32248 25-378)
- T1 construct: whole, on cells; Endogenous receptor on primary cells of a donor; kept apart from the recombinant receptor on CHO-K1 cells; also called CCR7 on PBMC
- T1 sequence (looked up): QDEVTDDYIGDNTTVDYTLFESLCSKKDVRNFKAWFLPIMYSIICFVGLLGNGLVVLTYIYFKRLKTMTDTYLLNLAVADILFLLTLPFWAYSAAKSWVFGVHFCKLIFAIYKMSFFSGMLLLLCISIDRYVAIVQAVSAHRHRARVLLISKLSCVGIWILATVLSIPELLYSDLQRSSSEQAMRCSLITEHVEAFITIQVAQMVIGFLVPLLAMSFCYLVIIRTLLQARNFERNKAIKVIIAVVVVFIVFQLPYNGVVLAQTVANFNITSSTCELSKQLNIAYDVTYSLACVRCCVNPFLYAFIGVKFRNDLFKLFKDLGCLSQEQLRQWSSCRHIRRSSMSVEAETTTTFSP
- test_protocol: flow cytometry, 0.5 µg antibody on 3×10^5 human PBMC, FITC anti-mouse IgG
assay_metric: Percentage of specifically binding cells (%)
// note: answer is a bare numeric in %

{"binder": "anti-human CCR7 monoclonal antibody R7-09 (hybridoma FERM BP-11372) (antibody, IgG2a, V domains shown, Mouse monoclonal antibody from hybridoma) VH: EVQLQQSGTELVRPGASVKLSCTASGFNIKDDYIHWVKQRPDQGLEWIGRIDPANGNTKYAPKFQDKATITSDTSSNTAYLQLSSLTSEDTAVYYCARSFYDYDLFASWGQGTLVSVSA VL: DAVVTQESALTTSPGGTVILTCRSSTGAVTTSNFANWVQEKPDHLFSGLISGNNKRAPGVPARFSGSLIGDKAALSITGAQTEDEAMYFCALWYNNHWVFGGGTK", "Percentage of specifically binding cells, %": 32.9}

Percentage of specifically binding cells in this record for anti-human CCR7 monoclonal antibody R7-05 (hybridoma FERM BP-11371) (antibody, IgG2b, V domains shown, Mouse monoclonal antibody from hybridoma) VH: EVQLQQSGAELVRPGASVKLSCTASGFNIKDDYIHWVKQRPEQGLDWIGRVDPADGNTKYAPNFHDKATVTADTSSNTAYLQLSSLTSEDTAVYYCARSFYDYDLFASWGQGTLVTVSA VL: DAVVTQESALTTSPGETVTLTCRSSTGAVTTSNFANWVQEKPDHLFTGLISSNNKRAPGVPARFSGSLIGDKAALSITGAQTEDEAIYFCALWYSNHWVFGGGTK : 37.3

Looking up anti-human CCR7 monoclonal antibody R7-11 (hybridoma FERM BP-11373) (antibody, IgG1, V domains shown, Mouse monoclonal antibody from hybridoma) VH: EVQLQQSGPDLVMPGASVRISCKASGYSFTAYYMHWVKQSHGLSLEWIGRVNPNNGGTSYNRKFKDKAILTVDRSSSTAFMELRSLTSEDSAVYYCARSESDHFYAMDSWGQGNSVSVSS VL: DIVMTQTPLSLPVSLGDQVFISCRSSQSLVHSNGNTYLCWFLQKPGQSPKLLIYRVSNRFSGVPDRFSGSGSGTDFTLKISRVEAEDLGVYFCFQGSHVPHTFGSGTK , I see its Percentage of specifically binding cells listed as 25.5
